Measured values drawn from paper PMC10397247 for this set.

# assayed system: T1, 4H3974-AA
# T1 chain: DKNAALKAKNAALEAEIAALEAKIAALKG
# assay info: two-hybrid library CCmax;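 note: natural log of median RNA to DNA barcode read ratio; higher means stronger binding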
# experimental context: mean of both orientations
observation type: interaction score
Keep it simple and answer with nothing but the number.

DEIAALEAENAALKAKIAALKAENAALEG [4H235-AA] : -0.571
DKNAALKAEIAALEAKIAALKAKIAALEG [4H3629-AA] : 0.236

Read off the recorded interaction score for DKNAALEAKIAALKAKNAALKAEIAALEG [4H3449-AA] -0.638

Read off the recorded interaction score for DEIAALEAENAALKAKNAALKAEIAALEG [4H249-AA] -0.0812

Read off the recorded interaction score for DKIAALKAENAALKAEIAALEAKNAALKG [4H2760-AA] -1.69

Read off the recorded interaction score for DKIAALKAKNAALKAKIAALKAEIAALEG [4H3049-AA] 1.52

Read off the recorded interaction score for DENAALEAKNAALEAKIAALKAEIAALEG [4H1449-AA] 2.16
